So I've got a bunch of compounds here, and I need their kon values.
tested-on: human α7‐only‐nAChR (Homo sapiens)
Construct: expressed in transfected cells; host or cells: Xenopus laevis oocytes, cRNA injection
measurement-protocol: cell-based
run-conditions: read-out: k on α7‐only; SEM
Write down the numeric answer in M⁻¹ s⁻¹ and omit the unit.

Quick one: kon of CC(C)C[C@@H]1NC(=O)[C@H](Cc2ccccc2)NC(=O)[C@@H]2CSSC[C@H](NC(=O)CN)C(=O)N[C@@H](CSSC[C@@H](C(N)=O)NC(=O)[C@H](Cc3ccc(O)cc3)NC(=O)[C@H](CC(=O)O)NC(=O)[C@@H]3CCCN3C(=O)[C@H](Cc3c[nH]cn3)NC(=O)[C@H](CC(N)=O)NC1=O)C(=O)N[C@@H](CO)C(=O)N[C@@H](Cc1c[nH]cn1)C(=O)N1CCC[C@H]1C(=O)N1CCC[C@H]1C(=O)N2 [[N12H]] ?
18300

Quick one: kon of CC(C)C[C@@H]1NC(=O)[C@H](Cc2ccccc2)NC(=O)[C@@H]2CSSC[C@H](NC(=O)CN)C(=O)N[C@@H](CSSC[C@@H](C(N)=O)NC(=O)[C@H](CC(=O)O)NC(=O)[C@H](CC(=O)O)NC(=O)[C@@H]3CCCN3C(=O)[C@H](CC(N)=O)NC(=O)[C@H](CC(N)=O)NC1=O)C(=O)N[C@@H](CO)C(=O)N[C@@H](Cc1c[nH]cn1)C(=O)N1CCC[C@H]1C(=O)N1CCC[C@H]1C(=O)N2 [[Y15D]] ?
54800

Quick one: kon of CC(C)C[C@@H]1NC(=O)[C@H](CC(C)C)NC(=O)[C@@H]2CSSC[C@H](NC(=O)CN)C(=O)N[C@@H](CSSC[C@@H](C(N)=O)NC(=O)[C@H](Cc3ccc(O)cc3)NC(=O)[C@H](CC(=O)O)NC(=O)[C@@H]3CCCN3C(=O)[C@H](CC(N)=O)NC(=O)[C@H](CC(N)=O)NC1=O)C(=O)N[C@@H](CO)C(=O)N[C@@H](Cc1c[nH]cn1)C(=O)N1CCC[C@H]1C(=O)N1CCC[C@H]1C(=O)N2 [[F9L]] ?
32800

* * *

tested-on: human α7‐only‐nAChR (Homo sapiens)
Construct: expressed in transfected cells; host or cells: Xenopus laevis oocytes, cRNA injection
measurement-protocol: cell-based
run-conditions: read-out: k on α7‐only; SEM
property-label: kon (M⁻¹ s⁻¹)
Write down the numeric answer in M⁻¹ s⁻¹ and omit the unit.

Quick one: kon of NCC(=O)N[C@H]1CSSC[C@@H]2NC(=O)[C@@H]3CCCN3C(=O)[C@@H]3CCCN3C(=O)[C@H](Cc3c[nH]cn3)NC(=O)[C@H](CO)NC(=O)[C@H](CSSC[C@@H](C(N)=O)NC(=O)[C@H](Cc3ccc(O)cc3)NC(=O)[C@H](CC(=O)O)NC(=O)[C@@H]3CCCN3C(=O)[C@H](CC(N)=O)NC(=O)[C@H](CC(N)=O)NC(=O)[C@H](Cc3ccc(O)cc3)NC(=O)[C@H](Cc3ccccc3)NC2=O)NC1=O [[L10Y]] ?
6670

Quick one: kon of CC(C)C[C@@H]1NC(=O)[C@H](Cc2ccccc2)NC(=O)[C@@H]2CSSC[C@H](NC(=O)CN)C(=O)N[C@@H](CSSC[C@@H](C(N)=O)NC(=O)[C@H](Cc3ccc(O)cc3)NC(=O)[C@H](CC(=O)O)NC(=O)[C@@H]3CCCN3C(=O)[C@H](CC(N)=O)NC(=O)[C@H](CC(N)=O)NC1=O)C(=O)N[C@@H](CCCNC(=N)N)C(=O)N[C@@H](Cc1c[nH]cn1)C(=O)N1CCC[C@H]1C(=O)N1CCC[C@H]1C(=O)N2 [[S4R]] ?
56700

Quick one: kon of CC(C)C[C@@H]1NC(=O)[C@H](Cc2ccccc2)NC(=O)[C@@H]2CSSC[C@H](NC(=O)CN)C(=O)N[C@@H](CSSC[C@@H](C(N)=O)NC(=O)[C@H](Cc3ccc(O)cc3)NC(=O)[C@H](CCC(=O)O)NC(=O)[C@@H]3CCCN3C(=O)[C@H](CC(N)=O)NC(=O)[C@H](CC(N)=O)NC1=O)C(=O)N[C@@H](CO)C(=O)N[C@@H](Cc1c[nH]cn1)C(=O)N1CCC[C@H]1C(=O)N1CCC[C@H]1C(=O)N2 [[D14E]] ?
57500

* * *

tested-on: human α7β2‐nAChR (Homo sapiens, UniProt P17787+P36544)
Construct: expressed in transfected cells; host or cells: Xenopus laevis oocytes, cRNA injection
Sequence (P36544 23-502 limits assumed): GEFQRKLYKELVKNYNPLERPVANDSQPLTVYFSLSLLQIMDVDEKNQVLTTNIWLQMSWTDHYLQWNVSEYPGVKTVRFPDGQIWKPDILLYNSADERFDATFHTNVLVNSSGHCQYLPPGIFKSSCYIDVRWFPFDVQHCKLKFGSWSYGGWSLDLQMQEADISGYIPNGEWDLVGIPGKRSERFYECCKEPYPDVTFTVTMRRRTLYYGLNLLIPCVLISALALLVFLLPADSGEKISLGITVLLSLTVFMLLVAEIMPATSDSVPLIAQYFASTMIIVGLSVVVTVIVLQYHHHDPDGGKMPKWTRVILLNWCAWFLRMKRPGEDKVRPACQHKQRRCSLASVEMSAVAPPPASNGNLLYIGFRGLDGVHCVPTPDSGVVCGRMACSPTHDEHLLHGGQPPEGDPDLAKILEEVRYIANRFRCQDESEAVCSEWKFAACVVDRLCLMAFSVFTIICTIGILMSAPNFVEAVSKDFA
Sequence (P17787 26-502 limits assumed): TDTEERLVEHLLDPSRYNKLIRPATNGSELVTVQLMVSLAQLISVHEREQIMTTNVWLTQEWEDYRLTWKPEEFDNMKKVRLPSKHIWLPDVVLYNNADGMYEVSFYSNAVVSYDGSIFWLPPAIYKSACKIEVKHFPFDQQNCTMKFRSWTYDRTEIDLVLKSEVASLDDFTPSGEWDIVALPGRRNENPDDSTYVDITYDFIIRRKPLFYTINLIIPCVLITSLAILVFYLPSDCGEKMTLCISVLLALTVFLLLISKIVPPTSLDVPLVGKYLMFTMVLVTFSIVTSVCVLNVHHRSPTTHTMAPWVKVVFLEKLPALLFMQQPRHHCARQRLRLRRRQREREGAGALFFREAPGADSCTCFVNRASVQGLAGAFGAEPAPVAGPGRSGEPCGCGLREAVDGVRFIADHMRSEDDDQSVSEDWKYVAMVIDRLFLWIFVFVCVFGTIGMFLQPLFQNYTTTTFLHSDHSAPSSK
measurement-protocol: cell-based
run-conditions: K d α7β2; SEM
property-label: Kd (nM)
Write down the numeric answer in nM and omit the unit.

Quick one: Kd of CC(C)C[C@@H]1NC(=O)[C@H](CC(C)C)NC(=O)[C@@H]2CSSC[C@H](NC(=O)CN)C(=O)N[C@@H](CSSC[C@@H](C(N)=O)NC(=O)[C@H](Cc3ccc(O)cc3)NC(=O)[C@H](CC(=O)O)NC(=O)[C@@H]3CCCN3C(=O)[C@H](CC(N)=O)NC(=O)[C@H](CC(N)=O)NC1=O)C(=O)N[C@@H](CO)C(=O)N[C@@H](Cc1c[nH]cn1)C(=O)N1CCC[C@H]1C(=O)N1CCC[C@H]1C(=O)N2 [[F9L]] ?
15

Quick one: Kd of CC(C)C[C@@H]1NC(=O)[C@H](Cc2ccccc2)NC(=O)[C@@H]2CSSC[C@H](NC(=O)CN)C(=O)N[C@@H](CSSC[C@@H](C(N)=O)NC(=O)[C@H](Cc3ccc(O)cc3)NC(=O)[C@H](CCC(=O)O)NC(=O)[C@@H]3CCCN3C(=O)[C@H](CC(N)=O)NC(=O)[C@H](CC(N)=O)NC1=O)C(=O)N[C@@H](CO)C(=O)N[C@@H](Cc1c[nH]cn1)C(=O)N1CCC[C@H]1C(=O)N1CCC[C@H]1C(=O)N2 [[D14E]] ?
1.4

Quick one: Kd of NCC(=O)N[C@H]1CSSC[C@@H]2NC(=O)[C@@H]3CCCN3C(=O)[C@@H]3CCCN3C(=O)[C@H](Cc3c[nH]cn3)NC(=O)[C@H](CO)NC(=O)[C@H](CSSC[C@@H](C(N)=O)NC(=O)[C@H](Cc3ccc(O)cc3)NC(=O)[C@H](CC(=O)O)NC(=O)[C@@H]3CCCN3C(=O)[C@H](CC(N)=O)NC(=O)[C@H](CC(N)=O)NC(=O)[C@H](Cc3ccc(O)cc3)NC(=O)[C@H](Cc3ccccc3)NC2=O)NC1=O [[L10Y]] ?
12

* * *

tested-on: human α7β2‐nAChR (Homo sapiens, UniProt P17787+P36544)
Construct: expressed in transfected cells; host or cells: Xenopus laevis oocytes, cRNA injection
measurement-protocol: cell-based
run-conditions: read-out: k off α7β2; SEM
property-label: koff (s⁻¹)
Write down the numeric answer in s⁻¹ and omit the unit.

Quick one: koff of CC(C)C[C@@H]1NC(=O)[C@H](Cc2ccccc2)NC(=O)[C@@H]2CSSC[C@H](NC(=O)CN)C(=O)N[C@@H](CSSC[C@@H](C(N)=O)NC(=O)[C@H](Cc3ccc(O)cc3)NC(=O)[C@H](CC(=O)O)NC(=O)[C@@H]3CCCN3C(=O)[C@H](CC(N)=O)NC(=O)[C@H](CC(N)=O)NC1=O)C(=O)N[C@@H](CCCNC(=N)N)C(=O)N[C@@H](Cc1c[nH]cn1)C(=O)N1CCC[C@H]1C(=O)N1CCC[C@H]1C(=O)N2 [[S4R]] ?
9.33e-05

* * *

tested-on: human α7β2‐nAChR (Homo sapiens, UniProt P17787+P36544)
Construct: expressed in transfected cells; host or cells: Xenopus laevis oocytes, cRNA injection
measurement-protocol: cell-based
run-conditions: K d α7β2; SEM
property-label: pKd
// pKd: -log10(molar conc.)

Quick one: pKd of CC(C)C[C@@H]1NC(=O)[C@H](Cc2ccccc2)NC(=O)[C@@H]2CSSC[C@H](NC(=O)CN)C(=O)N[C@@H](CSSC[C@@H](C(N)=O)NC(=O)[C@H](Cc3ccc(O)cc3)NC(=O)[C@H](CC(=O)O)NC(=O)[C@@H]3CCCN3C(=O)[C@H](CC(N)=O)NC(=O)[C@H](CC(N)=O)NC1=O)C(=O)N[C@@H](CCCNC(=N)N)C(=O)N[C@@H](Cc1c[nH]cn1)C(=O)N1CCC[C@H]1C(=O)N1CCC[C@H]1C(=O)N2 [[S4R]] ?
9.08

Quick one: pKd of CC(C)C[C@@H]1NC(=O)[C@H](Cc2ccccc2)NC(=O)[C@@H]2CSSC[C@H](NC(=O)CN)C(=O)N[C@@H](CSSC[C@@H](C(N)=O)NC(=O)[C@H](CC(=O)O)NC(=O)[C@H](CC(=O)O)NC(=O)[C@@H]3CCCN3C(=O)[C@H](CC(N)=O)NC(=O)[C@H](CC(N)=O)NC1=O)C(=O)N[C@@H](CO)C(=O)N[C@@H](Cc1c[nH]cn1)C(=O)N1CCC[C@H]1C(=O)N1CCC[C@H]1C(=O)N2 [[Y15D]] ?
8.00

Quick one: pKd of CC(C)C[C@@H]1NC(=O)[C@H](Cc2ccccc2)NC(=O)[C@@H]2CSSC[C@H](NC(=O)CN)C(=O)N[C@@H](CSSC[C@@H](C(N)=O)NC(=O)[C@H](Cc3ccc(O)cc3)NC(=O)[C@H](CC(=O)O)NC(=O)[C@@H]3CCCN3C(=O)[C@H](Cc3c[nH]cn3)NC(=O)[C@H](CC(N)=O)NC1=O)C(=O)N[C@@H](CO)C(=O)N[C@@H](Cc1c[nH]cn1)C(=O)N1CCC[C@H]1C(=O)N1CCC[C@H]1C(=O)N2 [[N12H]] ?
7.89
